In this section we review reported IC50 values for a set of molecules.
# TEST_SYSTEM: UniProtKB Q9H0K1
# TEST_NAME: SIK2 Enzymatic Assay High Version 2 (High ATP)
# Format: biochemical
# TEST_CONTEXT: enzyme 6 nM, 6 mM ATP and 400 μM HDAC5tide (each 2× final concentration); 30 minutes pre-incubation, 2 hours; ADP-Glo Max luminescence; read-out: SIK2 high ATP IC50 (μM) (Test Example 2)
REPORTED_PROPERTY: IC50

- MOLECULE: "Cc1cc(-c2ccn3nc(Nc4cc(C)nc(C)n4)cc3c2)c(OC[C@@H]2CN(S(C)(=O)=O)CCO2)cn1"
  VALUE_REPORTED: "0.175 µM"
- MOLECULE: "Cc1cc(Nc2cc3cc(-c4cc(OC(F)F)ncc4OCC(C)(C)C#N)ccn3n2)nc(N2CCOCC2)n1"
  VALUE_REPORTED: "0.0094 µM"
- MOLECULE: "Cc1cc(-c2ccn3nc(NC(=O)C4CC4)cc3c2)c(O[C@H]2CCC[C@H](O)C2)cn1 (single isomer, unassigned)"
  VALUE_REPORTED: "0.0116 µM"
- MOLECULE: "Cc1cc(-c2ccn3nc(Nc4cccnc4)cc3c2)c(OC[C@@H]2CNCCO2)cn1"
  VALUE_REPORTED: "0.0524 µM"
- MOLECULE: "Cc1cc(-c2cn3cc(Nc4cc(C)nc(C)n4)nc3cn2)c(O[C@H]2CC[C@@H](O)CC2)cn1"
  VALUE_REPORTED: "0.0178 µM"
- MOLECULE: "Cc1cc(-c2ccn3nc(Nc4cc(C)nc(C)n4)cc3c2)c(OCC(O)(C(F)(F)F)C(F)(F)F)cn1"
  VALUE_REPORTED: "0.0153 µM"
- MOLECULE: "N#Cc1cc(-c2ccn3nc(NC(=O)C4CC4)cc3c2)c(OC[C@H]2C[C@@H](NCc3ccccc3)C2)cn1"
  VALUE_REPORTED: "0.141 µM"

###

# TEST_SYSTEM: SIK2 (Homo sapiens)
# Sequence (Q9H0K1 whole entry, species assumed): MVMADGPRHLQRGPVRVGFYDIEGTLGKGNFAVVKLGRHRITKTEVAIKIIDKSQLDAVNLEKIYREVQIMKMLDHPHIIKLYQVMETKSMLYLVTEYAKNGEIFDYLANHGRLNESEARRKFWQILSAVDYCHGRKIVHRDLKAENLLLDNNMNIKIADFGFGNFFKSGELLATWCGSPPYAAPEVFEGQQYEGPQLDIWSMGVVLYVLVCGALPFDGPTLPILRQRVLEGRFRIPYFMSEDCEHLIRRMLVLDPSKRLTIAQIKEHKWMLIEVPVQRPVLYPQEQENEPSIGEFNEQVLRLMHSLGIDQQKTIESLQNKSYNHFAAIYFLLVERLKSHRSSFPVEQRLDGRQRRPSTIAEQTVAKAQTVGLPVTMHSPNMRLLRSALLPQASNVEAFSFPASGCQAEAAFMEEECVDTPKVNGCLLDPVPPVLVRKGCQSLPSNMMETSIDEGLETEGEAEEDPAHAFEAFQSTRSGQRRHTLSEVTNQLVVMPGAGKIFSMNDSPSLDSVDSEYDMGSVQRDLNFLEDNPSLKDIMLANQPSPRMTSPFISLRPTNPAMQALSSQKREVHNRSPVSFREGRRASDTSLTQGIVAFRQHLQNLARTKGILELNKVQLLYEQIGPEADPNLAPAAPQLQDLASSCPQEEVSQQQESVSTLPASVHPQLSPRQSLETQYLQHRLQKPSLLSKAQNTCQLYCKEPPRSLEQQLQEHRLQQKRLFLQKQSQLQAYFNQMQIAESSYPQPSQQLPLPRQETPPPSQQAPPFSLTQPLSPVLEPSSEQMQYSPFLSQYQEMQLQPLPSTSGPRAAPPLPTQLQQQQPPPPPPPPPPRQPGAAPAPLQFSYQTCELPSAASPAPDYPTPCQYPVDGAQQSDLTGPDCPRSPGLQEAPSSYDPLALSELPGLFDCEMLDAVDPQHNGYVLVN
# TEST_NAME: SIK2 Enzymatic Assay High Version 2 (High ATP)
# Type: biochemical
# TEST_CONTEXT: enzyme 6 nM, 6 mM ATP and 400 μM HDAC5tide (each 2× final concentration); 30 minutes pre-incubation, 2 hours; ADP-Glo Max luminescence; read-out: SIK2 high ATP IC50 (μM) (Test Example 2)
REPORTED_PROPERTY: IC50 (µM)

- MOLECULE: "Cc1cncc(Nc2cc3cc(-c4cc(OCC(F)F)ncc4OCC(C)(C)C#N)ccn3n2)n1"
  RELATIONAL_OPERATOR: "="
  VALUE_REPORTED: 0.0821
- MOLECULE: "Cc1ccc(Nc2cc3cc(-c4cc(C)ncc4OC[C@@H]4CNCCO4)ccn3n2)nc1"
  RELATIONAL_OPERATOR: "="
  VALUE_REPORTED: 0.00568
- MOLECULE: "CO[C@H]1CN(C)C[C@@H]1COc1cnc(C)cc1-c1ccn2nc(NC(=O)C3CC3)cc2c1 (racemic) [Example 571]"
  RELATIONAL_OPERATOR: "="
  VALUE_REPORTED: 0.165
- MOLECULE: "CCNc1nc(Nc2cc3cc(-c4cc(OC(F)F)ncc4OCC(C)(C)C#N)ccn3n2)cc(C(F)(F)F)n1"
  RELATIONAL_OPERATOR: "="
  VALUE_REPORTED: 0.00786
- MOLECULE: "Cc1cc(Nc2cc3cc(-c4cc(OCC(F)(F)F)ncc4OCC(C)(C)O)ccn3n2)nc(C)n1"
  RELATIONAL_OPERATOR: "="
  VALUE_REPORTED: 0.0749
- MOLECULE: "Cc1cc(-c2ccn3nc(Nc4cc(C)nc(C)n4)cc3c2)c(OC[C@]2(O)CCCOC2)cn1 (single isomer, unassigned)"
  RELATIONAL_OPERATOR: "="
  VALUE_REPORTED: 0.0922
- MOLECULE: "Cc1cc(-c2ccn3nc(Nc4cncc(C)n4)cc3c2)c(OC[C@H]2OCC[C@@H]2O)cn1"
  RELATIONAL_OPERATOR: "="
  VALUE_REPORTED: 0.00781
- MOLECULE: "Cc1cc(-c2ccn3nc(NC(=O)C4CC4)cc3c2)c(OC[C@]23CN[C@H](CO2)C3)cn1"
  RELATIONAL_OPERATOR: "="
  VALUE_REPORTED: 0.00479
- MOLECULE: "Cc1cc(Nc2cc3cc(-c4cc(OC(F)F)ncc4OC[C@H]4CC(=O)NC4(C)C)ccn3n2)nc(C)n1 (single isomer, unassigned) [Example 739]"
  RELATIONAL_OPERATOR: "="
  VALUE_REPORTED: 0.00119
- MOLECULE: "COc1cc(Nc2cc3cc(-c4cc(C)ncc4O[C@H]4CC[C@H](O)CC4)ccn3n2)cc(OC)c1C(=O)N(C)C"
  RELATIONAL_OPERATOR: "="
  VALUE_REPORTED: 0.015
- MOLECULE: "COc1cc(Nc2cc3cc(-c4cc(C)ncc4OCC(C)(C)O)ccn3n2)cc(OC(F)F)c1C(=O)NC1CC1"
  RELATIONAL_OPERATOR: "="
  VALUE_REPORTED: 0.0887
- MOLECULE: "Cc1cc(-c2ccn3nc(Nc4cc(C)nc(C)n4)cc3c2)c(OC[C@@](C)(N)C(F)(F)F)cn1 (single isomer, unassigned)"
  RELATIONAL_OPERATOR: "="
  VALUE_REPORTED: 0.0193
- MOLECULE: "Cc1cc(-c2ccn3nc(Nc4cnc(C(C)(C)C)cn4)cc3c2)c(OCC(C)(C)O)cn1"
  RELATIONAL_OPERATOR: "="
  VALUE_REPORTED: 0.1
- MOLECULE: "Cc1cc(-c2ccn3nc(Nc4cnn(C(C)C)c4)cc3c2)c(OC2CN(C)C2)cn1"
  RELATIONAL_OPERATOR: "="
  VALUE_REPORTED: 0.0683
- MOLECULE: "Cc1cc(-c2cn3cc(Nc4cncc(C)n4)nc3cn2)c(O[C@H]2CC[C@H](O)CC2)cn1"
  RELATIONAL_OPERATOR: "="
  VALUE_REPORTED: 0.984
- MOLECULE: "Cc1cc(-c2ccn3nc(NC(=O)C4CC4)cc3c2)c(OCC2(O)CCC(F)(F)CC2)cn1 (racemic)"
  RELATIONAL_OPERATOR: "="
  VALUE_REPORTED: 0.0478
- MOLECULE: "Cc1cc(-c2ccn3nc(Nc4cc(C)nc(C)n4)cc3c2)c(OC[C@@H]2CC3(CCC3)CO2)cn1 (single isomer, unassigned)"
  RELATIONAL_OPERATOR: "="
  VALUE_REPORTED: 0.0142
- MOLECULE: "CC#Cc1cc(-c2ccn3nc(Nc4ccn(C)n4)cc3c2)c(OCC2(F)CNC2)cn1"
  RELATIONAL_OPERATOR: "<"
  VALUE_REPORTED: 0.000847
- MOLECULE: "Cc1cc(-c2ccn3nc(NC(=O)C4CC4)cc3c2)c(OCC2(C#N)CNC2)cn1"
  RELATIONAL_OPERATOR: "="
  VALUE_REPORTED: 0.00234
- MOLECULE: "Cc1cc(-c2ccn3nc(Nc4cc(C)nc(C)n4)cc3c2)c(OCC(C)(C)O)cn1"
  RELATIONAL_OPERATOR: "="
  VALUE_REPORTED: 0.0445
- MOLECULE: "Cc1cc(-c2ccn3nc(NC(=O)C4CC4)cc3c2)c(OCC2CN(CCF)C2)cn1"
  RELATIONAL_OPERATOR: "="
  VALUE_REPORTED: 0.0298
- MOLECULE: "Cc1cc(-c2ccn3nc(Nc4cnn(C)c4)cc3c2)c(O[C@H]2CC[C@](C)(O)CC2)cn1"
  RELATIONAL_OPERATOR: "="
  VALUE_REPORTED: 0.00795
- MOLECULE: "CC(C)(C#N)COc1cnc(OC(F)F)cc1-c1ccn2nc(NC(=O)C3CC3)cc2c1"
  RELATIONAL_OPERATOR: "="
  VALUE_REPORTED: 0.0244
- MOLECULE: "CNC(=O)c1c(OC)cc(Nc2cc3cc(-c4cc(C)ncc4O[C@H]4CC[C@H](O)CC4)ccn3n2)cc1OC"
  RELATIONAL_OPERATOR: "="
  VALUE_REPORTED: 0.0366
- MOLECULE: "Cc1cc(-c2ccn3nc(Nc4cccnn4)cc3c2)c(OC[C@@H]2CNCC(C)(C)O2)cn1"
  RELATIONAL_OPERATOR: "="
  VALUE_REPORTED: 0.0559
- MOLECULE: "CC(C)(C#N)COc1cnc(OC(F)F)cc1-c1ccn2nc(Nc3cccnn3)cc2c1"
  RELATIONAL_OPERATOR: "="
  VALUE_REPORTED: 0.00591
- MOLECULE: "Cc1cc(-c2ccn3nc(NC(=O)C4CC4)cc3c2)c(O[C@H]2CC[C@@](O)(C(F)(F)F)CC2)cn1"
  RELATIONAL_OPERATOR: "="
  VALUE_REPORTED: 0.00251
- MOLECULE: "Cc1cc(Nc2cc3cc(-c4cc(C#N)ccc4OCC(C)(C)O)ccn3n2)nc(C)n1"
  RELATIONAL_OPERATOR: "="
  VALUE_REPORTED: 0.0571
- MOLECULE: "CC(=O)N1CCO[C@H](COc2cnc(C)cc2-c2ccn3nc(Nc4cc(C)nc(C)n4)cc3c2)C1"
  RELATIONAL_OPERATOR: "="
  VALUE_REPORTED: 0.755
